Hello, the source for this data is patent US20240262812A1, in case you need it.

Exercise: state measured Degree of adhesion (score) for each of the molecules provided.
Tested on: DNBS induced colitis in Wistar rats
experiment.summary: DNBS induced colitis model in Wistar rats
Type: in vivo, rat
Set-up: scale not given here
condition.notes: mean score per Table 4; oral once a day Day 0 to Day 6; compounds 10 mg/kg, osalazine sodium 300 mg/kg
Source text: The therapeutic effect of compounds prepared in some examples of the present invention on 2,4-dinitrobenzenesulfonic acid (DNBS) induced ulcerative colitis in Wistar rats (corresponding to Crohn's disease) was investigated. […] 3.4 Testing indicators: After the experiment, all animals were euthanized by inhaling excessive CO2 and dislocation of cervical vertebra. After the abdominal cavity was cut open, the colorectum was taken out and the length of it was immediately measured. […]
Answers are plain numbers.

// worked examples, Degree of adhesion (score) included
CNCc1ccc(-c2cc[nH]n2)c(NS(=O)(=O)c2ccccc2)c1 [IA-55] | 0.10
NCc1ccc(NS(=O)(=O)c2ccsc2)c(-c2ccco2)c1 [ID-5] | 0.00
CNCc1ccc(-c2nccs2)c(NS(=O)(=O)c2ccccc2)c1 [IA-51] | 0.07
O=C([O-])c1cc(/N=N/c2ccc(O)c(C(=O)[O-])c2)ccc1O.[Na+].[Na+] [osalazine sodium, reference compound] | 0.00

Now take the following molecule into account.
# input molecule: CNCc1ccc(NS(=O)(=O)c2ccsc2)c(-c2ccco2)c1 [IA-30] ; wanted: its Degree of adhesion (score)
0.00

====

Exercise: state measured IC50 for each of the compounds provided.
assayed.system: mTRPA1 (Mus musculus, UniProt Q8BLA8)
Sequence (Q8BLA8 whole entry): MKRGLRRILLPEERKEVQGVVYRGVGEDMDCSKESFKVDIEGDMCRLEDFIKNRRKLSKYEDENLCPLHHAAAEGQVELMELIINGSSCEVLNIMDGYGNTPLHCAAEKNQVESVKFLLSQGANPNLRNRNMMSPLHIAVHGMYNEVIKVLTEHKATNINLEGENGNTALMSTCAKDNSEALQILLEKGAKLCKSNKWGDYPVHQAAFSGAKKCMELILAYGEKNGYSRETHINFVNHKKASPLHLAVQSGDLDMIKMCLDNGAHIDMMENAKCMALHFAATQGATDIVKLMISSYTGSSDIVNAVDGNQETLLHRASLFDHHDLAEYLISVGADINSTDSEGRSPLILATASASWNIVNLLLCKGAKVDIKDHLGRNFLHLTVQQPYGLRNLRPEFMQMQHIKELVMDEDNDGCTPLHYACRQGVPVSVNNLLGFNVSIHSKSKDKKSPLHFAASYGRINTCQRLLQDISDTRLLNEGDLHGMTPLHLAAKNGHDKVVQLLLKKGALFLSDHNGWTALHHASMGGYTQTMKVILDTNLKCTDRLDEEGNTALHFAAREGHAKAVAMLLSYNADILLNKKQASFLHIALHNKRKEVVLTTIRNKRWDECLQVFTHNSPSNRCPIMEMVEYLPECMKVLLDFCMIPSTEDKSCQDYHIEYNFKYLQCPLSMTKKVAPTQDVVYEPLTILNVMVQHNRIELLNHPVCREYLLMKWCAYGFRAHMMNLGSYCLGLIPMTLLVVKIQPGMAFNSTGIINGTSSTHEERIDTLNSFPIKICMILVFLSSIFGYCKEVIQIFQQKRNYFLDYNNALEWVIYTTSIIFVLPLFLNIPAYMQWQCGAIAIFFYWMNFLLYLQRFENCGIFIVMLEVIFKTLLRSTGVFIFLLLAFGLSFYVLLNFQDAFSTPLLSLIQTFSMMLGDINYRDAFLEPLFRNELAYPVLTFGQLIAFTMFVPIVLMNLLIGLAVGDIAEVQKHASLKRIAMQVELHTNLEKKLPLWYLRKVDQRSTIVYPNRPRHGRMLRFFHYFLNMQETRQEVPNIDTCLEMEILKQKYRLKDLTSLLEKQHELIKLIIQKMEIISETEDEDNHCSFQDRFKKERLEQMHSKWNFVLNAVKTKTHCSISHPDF
experiment.summary: IonWorks Barracuda (IWB) automated patch clamp, TRPA1 inhibitory activity
condition.notes: HEK293 cells stably expressing mTRPA1, current induced by AITC, amplitude at +100 mV; read-out: IC50 (inhibition activity on TRPA1)

// worked examples, IC50 included
CNCc1ccc(-c2ccco2)c(NS(=O)(=O)c2ccc(Cl)nc2)c1 | 10 to 20 µM
NCc1ccc(NS(=O)(=O)c2ccccc2)c(-c2ccco2)c1 | 1 to 5 µM
CNCc1ccc(-c2cn[nH]c2)c(NS(=O)(=O)c2ccccc2)c1 | 20 to 50 µM

I need IC50 for every entry listed below, if you could help.
1. CNCc1ccc(-n2nccn2)c(NS(=O)(=O)c2ccccc2)c1
2. CNCc1ccc(-c2ccco2)c(NS(=O)(=O)c2c(F)cccc2F)c1
3. CNCc1ccc(-c2ccoc2)c(NS(=O)(=O)c2ccc(F)cc2)c1
4. CNCc1ccc(-c2ccco2)c(NS(=O)(=O)c2ccc(OC)cc2)c1
5. CNCc1ccc(-c2ccco2)c(NS(=O)(=O)c2ccc(F)cc2F)c1
6. CNCc1ccc(-c2ccco2)c(NS(=O)(=O)c2ccsc2)c1

1. 1 to 5 µM
2. 5 to 10 µM
3. 5 to 10 µM
4. 5 to 10 µM
5. 1 to 5 µM
6. 1 to 5 µM

====

assayed.system: chemokine receptor CCR9 (Homo sapiens, UniProt P51686)
Construct: expressed in transfected cells
Sequence (P51686 whole entry): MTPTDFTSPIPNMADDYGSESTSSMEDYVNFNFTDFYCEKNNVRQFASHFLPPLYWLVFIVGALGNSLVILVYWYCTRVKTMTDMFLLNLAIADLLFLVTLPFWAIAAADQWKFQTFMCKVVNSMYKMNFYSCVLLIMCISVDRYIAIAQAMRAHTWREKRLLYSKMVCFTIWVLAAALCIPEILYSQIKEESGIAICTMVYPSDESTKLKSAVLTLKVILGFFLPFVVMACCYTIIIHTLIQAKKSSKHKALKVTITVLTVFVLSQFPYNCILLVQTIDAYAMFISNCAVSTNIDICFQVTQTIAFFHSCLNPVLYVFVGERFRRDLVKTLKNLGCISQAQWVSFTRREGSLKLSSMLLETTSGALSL
experiment.summary: CCR9 antagonistic activity, calcium flow (Fluo-4, FlexStation), CCL25 agonist
Format: cell-based
condition.notes: 100 μM; antagonistic mode, CCL25 150 nM; read-out: Inhibition rate (%) (100 μM)
observable: inhibition at 100 µM (%)
One number for each entry, in %.

// worked examples, inhibition at 100 µM included
NCc1ccc(-c2ccco2)c(NS(=O)(=O)c2ccsc2)c1 [ID-3] | 13
CNCc1ccc(-c2ccco2)c(NS(=O)(=O)c2ccc(F)cc2F)c1 [IA-11] | 5

Now take the following molecule into account.
# input molecule: NCc1ccc(NS(=O)(=O)c2ccsc2)c(-c2ccco2)c1 [ID-5] ; wanted: its inhibition at 100 µM
8
